target: AP C3-convertase (C3bBb) (UniProt P01024); test: cell-based or functional assay
Sequence (P01024 23-667 limits assumed, chain 1 of 3): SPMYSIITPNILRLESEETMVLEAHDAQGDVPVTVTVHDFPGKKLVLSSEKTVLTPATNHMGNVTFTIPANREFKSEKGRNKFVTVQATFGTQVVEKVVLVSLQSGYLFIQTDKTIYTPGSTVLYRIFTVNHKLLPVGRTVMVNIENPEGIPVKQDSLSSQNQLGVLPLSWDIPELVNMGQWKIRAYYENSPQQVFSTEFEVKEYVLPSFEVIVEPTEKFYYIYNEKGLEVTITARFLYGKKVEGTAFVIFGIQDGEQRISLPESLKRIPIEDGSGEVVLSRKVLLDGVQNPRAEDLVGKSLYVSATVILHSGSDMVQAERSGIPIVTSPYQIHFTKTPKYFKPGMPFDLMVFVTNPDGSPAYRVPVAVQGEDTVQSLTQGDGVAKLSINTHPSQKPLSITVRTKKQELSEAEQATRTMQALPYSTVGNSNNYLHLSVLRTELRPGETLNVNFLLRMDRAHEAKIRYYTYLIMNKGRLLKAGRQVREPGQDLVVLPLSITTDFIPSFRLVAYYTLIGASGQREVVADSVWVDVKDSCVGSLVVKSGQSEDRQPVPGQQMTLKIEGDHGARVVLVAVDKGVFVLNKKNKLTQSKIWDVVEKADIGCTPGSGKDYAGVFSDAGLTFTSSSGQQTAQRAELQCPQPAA
Sequence (P01024 749-1663 limits assumed, chain 2 of 3): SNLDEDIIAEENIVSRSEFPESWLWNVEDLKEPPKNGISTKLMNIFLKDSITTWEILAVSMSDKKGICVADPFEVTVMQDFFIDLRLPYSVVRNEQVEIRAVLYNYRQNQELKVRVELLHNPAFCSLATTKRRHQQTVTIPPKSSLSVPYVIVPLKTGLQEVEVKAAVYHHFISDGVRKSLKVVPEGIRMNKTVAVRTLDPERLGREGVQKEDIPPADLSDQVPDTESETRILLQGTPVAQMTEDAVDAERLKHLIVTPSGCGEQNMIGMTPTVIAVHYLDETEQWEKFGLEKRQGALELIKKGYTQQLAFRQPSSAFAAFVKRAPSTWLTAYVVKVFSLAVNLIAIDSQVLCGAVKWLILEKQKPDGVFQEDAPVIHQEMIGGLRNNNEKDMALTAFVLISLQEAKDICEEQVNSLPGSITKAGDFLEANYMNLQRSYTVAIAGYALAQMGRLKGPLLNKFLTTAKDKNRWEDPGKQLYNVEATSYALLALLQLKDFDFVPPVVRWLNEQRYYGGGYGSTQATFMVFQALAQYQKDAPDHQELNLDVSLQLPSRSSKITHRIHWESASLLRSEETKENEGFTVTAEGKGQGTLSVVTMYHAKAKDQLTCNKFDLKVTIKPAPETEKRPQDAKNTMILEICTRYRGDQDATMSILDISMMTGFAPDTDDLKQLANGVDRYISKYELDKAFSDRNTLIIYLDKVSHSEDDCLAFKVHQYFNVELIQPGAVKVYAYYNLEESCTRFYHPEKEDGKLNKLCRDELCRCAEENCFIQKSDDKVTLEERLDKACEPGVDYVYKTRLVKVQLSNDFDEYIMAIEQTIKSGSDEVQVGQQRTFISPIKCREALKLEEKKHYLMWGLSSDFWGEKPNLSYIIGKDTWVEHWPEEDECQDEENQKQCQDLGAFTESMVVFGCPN
Sequence (P00751 260-764 limits assumed, chain 3 of 3, further chain): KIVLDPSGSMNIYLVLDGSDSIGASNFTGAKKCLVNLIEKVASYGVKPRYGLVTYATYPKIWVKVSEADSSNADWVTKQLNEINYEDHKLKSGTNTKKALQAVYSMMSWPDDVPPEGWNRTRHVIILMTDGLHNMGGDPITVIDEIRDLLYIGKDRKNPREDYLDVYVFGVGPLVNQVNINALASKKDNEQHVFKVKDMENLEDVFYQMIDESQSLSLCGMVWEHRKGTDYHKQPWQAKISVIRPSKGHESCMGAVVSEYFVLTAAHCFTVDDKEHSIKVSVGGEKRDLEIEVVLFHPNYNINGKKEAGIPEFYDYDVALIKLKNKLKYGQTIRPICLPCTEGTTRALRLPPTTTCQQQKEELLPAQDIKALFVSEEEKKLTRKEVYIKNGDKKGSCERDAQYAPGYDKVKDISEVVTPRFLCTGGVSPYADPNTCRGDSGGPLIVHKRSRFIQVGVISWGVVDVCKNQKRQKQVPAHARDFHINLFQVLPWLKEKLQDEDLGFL

Binder	Relative AP-DAA
D2D3M3M4 (L205K) (protein) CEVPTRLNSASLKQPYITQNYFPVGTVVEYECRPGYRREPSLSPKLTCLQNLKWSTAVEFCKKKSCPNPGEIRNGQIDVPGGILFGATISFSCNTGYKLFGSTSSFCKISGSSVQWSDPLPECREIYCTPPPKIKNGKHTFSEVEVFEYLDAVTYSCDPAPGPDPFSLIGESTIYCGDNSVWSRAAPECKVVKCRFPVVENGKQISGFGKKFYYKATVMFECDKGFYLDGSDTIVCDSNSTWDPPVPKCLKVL	0.2
D2D3M3M4 (Multi-1) (protein) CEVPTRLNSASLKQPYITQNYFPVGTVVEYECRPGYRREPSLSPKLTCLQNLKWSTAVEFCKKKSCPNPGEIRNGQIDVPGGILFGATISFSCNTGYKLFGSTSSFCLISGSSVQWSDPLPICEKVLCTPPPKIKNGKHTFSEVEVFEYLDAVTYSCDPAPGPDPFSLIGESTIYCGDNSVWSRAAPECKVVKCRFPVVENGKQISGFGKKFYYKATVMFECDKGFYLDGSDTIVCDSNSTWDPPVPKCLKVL	1.1
D2D3M3M4 (T192E) (protein) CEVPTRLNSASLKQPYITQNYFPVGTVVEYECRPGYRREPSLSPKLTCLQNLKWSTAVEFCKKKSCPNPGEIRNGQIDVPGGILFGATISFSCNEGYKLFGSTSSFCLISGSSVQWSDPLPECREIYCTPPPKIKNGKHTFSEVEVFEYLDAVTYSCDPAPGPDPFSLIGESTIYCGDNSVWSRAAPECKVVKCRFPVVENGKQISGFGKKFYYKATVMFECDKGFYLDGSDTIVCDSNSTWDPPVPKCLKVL	0.9

The reported numbers originate from patent US20220195012A1.
